- tgt: S100A12
- experiment.notes: FP; direct
property.name: Kd (µM)
Express it in µM; write the number only.

Documented Kd of RRLLFYKYVYKR [NCX1 (254-265) peptide] : 170
